Hey, just so you know, these numbers are from PubChem BioAssay.

method.notes: viability loss with induced miR-34 in A549 – imaging, A549 dox-inducible miR-34, nuclei and caspase counts, primary screen (AID 1347080); also: test concentration not given here
condition.info: A549 miR-34 inducible, Hoechst nuclei count, 48 h; measured here: relative caspase fold change +Dox/-Dox
metric.name: fold change

> print(dat)
                                    compound  obs.value
 1  CCCCC[C@H](O)/C=C/[C@H]1[C@H](O)CC(=O)[C@@H]1C/C=C/CCCC(=O)O       1.22
 2        CC(=Nc1ccccc1N)c1c(C)cc(=O)n(O)c1O      0.955
 3  O=C(Cc1ccccc1)Nc1nc2ccc(Cl)cc2c2nc(-c3ccco3)nn12      0.707
 4  CN1c2cc(O)c(N=NC(N)=O)cc2CC1S(=O)(=O)O (stereo not given)       0.61
 5  CCCCCCNC(=O)Nc1ccc(S(=O)(=O)Nc2ccc(CCNC[C@H](O)COc3ccc(O)cc3)cc2)cc1       1.32
 6             O=C(N/N=C/c1ccccc1O)c1ccccc1O        1.5
 7  COC(=O)C1=C(C)NC(C)=C(C(=O)OCCCN2CCC(c3ccccc3)(c3ccccc3)CC2)[C@@H]1c1cccc([N+](=O)[O-])c1       1.28
 8   N#C/C(=C\c1ccc(O)c(O)c1)C(=O)OCCc1cccs1       1.36
 9          CC[N+](C)(CC)CC(=O)Nc1c(C)cccc1C      0.801
10  c1ccc2c(CCNc3ccc(Nc4ccncc4)cc3)c[nH]c2c1       1.37

====

Form field: fold change (one value per entry).
method.notes: viability loss with induced miR-34 in A549 – imaging, A549 dox-inducible miR-34, nuclei and caspase counts, primary screen (AID 1347080); also: test concentration not given here
condition.info: A549 miR-34 inducible, Hoechst nuclei count, 48 h; measured here: relative caspase fold change +Dox/-Dox
metric.name: fold change

> print(dat)
                                 smiles.code  obs.value
 1      O=C1c2cccc(O)c2C(=O)c2c(O)cc(CO)cc21      0.691
 2  CCOC(=O)NC[C@H](Cc1ccc(OCCc2nc(-c3ccccc3)oc2C)cc1)N/C(C)=C\C(=O)c1ccc(C(F)(F)F)cc1       1.05
 3  c1ccc2c(NCCCCCCCNc3c4c(nc5ccccc35)CCCC4)c3c(nc2c1)CCCC3      0.663
 4  CN(C)Cc1cccc(N=C(c2ccccc2)c2c(O)[nH]c3cc(C(=O)N(C)C)ccc23)c1       1.01
 5                   CCCC/C=C\CCCCCCCC(=O)OC      0.704
 6  COc1cc(/C=C(\C#N)C(=O)Nc2nnc(C(F)(F)F)s2)ccc1OCc1ccc(C(F)(F)F)cc1C(F)(F)F      0.417
 7  CC(=O)N(O)[C@@H]1c2cc(C#N)ccc2OC(C)(C)[C@H]1O       2.17
 8           CCCCC/C=C\C/C=C\CCCCCCCC(=O)OCC      0.749
 9  Nc1nc(Nc2ccc(S(N)(=O)=O)cc2)nn1C(=O)c1c(F)cccc1F      0.788
10         CCCCCCCCCCCCCCC(=O)N[C@H]1CCOC1=O       1.59
